# test-system: T1, monkey MSLN on HEK293T-monkey MSLN recombinant cells (monkey)
# T1 construct: Full-length precursor as transfected; processing on the cell is not described; also called HEK293-monkey MSLN
# T1 chain: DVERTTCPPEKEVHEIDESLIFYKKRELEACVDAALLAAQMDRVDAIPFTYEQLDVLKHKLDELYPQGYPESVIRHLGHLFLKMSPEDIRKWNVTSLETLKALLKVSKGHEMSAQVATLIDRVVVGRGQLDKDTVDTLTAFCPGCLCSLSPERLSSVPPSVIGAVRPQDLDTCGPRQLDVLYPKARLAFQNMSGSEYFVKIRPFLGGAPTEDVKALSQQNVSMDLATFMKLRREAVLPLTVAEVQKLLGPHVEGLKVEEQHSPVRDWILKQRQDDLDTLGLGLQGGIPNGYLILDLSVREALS
# test-method-notes: FACS, HEK293T-monkey MSLN cells
readout-label: Maximum_MFI (MFI)
Numbers only, in MFI.

F3.80.22-H5 (scFv, not shown: small tags and cut ends, also called S009-F3.80.22 humanized antibody VL1a + VH1) scFv: DIVMTQTPLSLPVTPGEPASISCRSSQSLEHNDGNTYLHWFLQKPGQSPQLLIYKVSNRFSGVPDRFSGSGSGTDFTLKISRVEAEDVGVYYCSQSTHVPFTFGQGTKLEIKGGGGSGGGGSGGGGSEVQLVQSGAEVKKPGATVKISCKVSGYTFTDYEIHWVQQAPGKGLEWMGAFDPEIGGSAYNQKFKDRVTITADKSTDTAYMELSSLRSEDTAVYYCTDYYGSSSGYFDVWGQGTTVTVSS
302
F3.80.22-H2 (scFv, not shown: small tags and cut ends, also called S009-F3.80.22 humanized antibody VL1 + VH2) scFv: DIVMTQTPLSLPVTPGEPASISCRSSQSLEHNNGNTYLHWFLQKPGQSPQLLIYKVSNRFSGVPDRFSGSGSGTDFTLKISRVEAEDVGVYYCSQSTHVPFTFGQGTKLEIKGGGGSGGGGSGGGGSEVQLVQSGAEVKKPGATVKISCKASGYTFTDYEIHWVQQAPGKGLEWMGAFDPEIGGSAYNQKFKDRVTITADKSTSTAYMELSSLRSEDTAVYYCTDYYGSSSGYFDVWGQGTTVTVSS
303
F3.80.22-H17 (scFv, not shown: small tags and cut ends, also called S009-F3.80.22 humanized antibody VH1 + VL1a) scFv: EVQLVQSGAEVKKPGATVKISCKVSGYTFTDYEIHWVQQAPGKGLEWMGAFDPEIGGSAYNQKFKDRVTITADKSTDTAYMELSSLRSEDTAVYYCTDYYGSSSGYFDVWGQGTTVTVSSGGGGSGGGGSGGGGSDIVMTQTPLSLPVTPGEPASISCRSSQSLEHNDGNTYLHWFLQKPGQSPQLLIYKVSNRFSGVPDRFSGSGSGTDFTLKISRVEAEDVGVYYCSQSTHVPFTFGQGTKLEIK
356

# ---- query binder ----
QUERY: Quickly give me recorded Maximum_MFI for F3.80.22-H3 (scFv, not shown: small tags and cut ends, also called S009-F3.80.22 humanized antibody VL1 + VH3) scFv: DIVMTQTPLSLPVTPGEPASISCRSSQSLEHNNGNTYLHWFLQKPGQSPQLLIYKVSNRFSGVPDRFSGSGSGTDFTLKISRVEAEDVGVYYCSQSTHVPFTFGQGTKLEIKGGGGSGGGGSGGGGSEVQLVQSGAEVKKPGATVKISCKASGYTFTDYEIHWVQQAPGKGLEWMGAFDPEIGGSAYNQKFKDRVTITADKSTSTAYMELSSLRSEDTAVYYCTDYYGSSSGYFDVWGTGTTVTVSS
RESULT: 330
